Data origin: PubChem BioAssay (NCI)

# Test system: HL-60(TB) leukemia
# test-summary: NCI tumour cell line growth inhibition, 48 h
For each entry below, report its TGI value.
Give bare numbers, in µM.

1) NCCCN(CCCCN(CCCN)CCCc1ccccc1)CCCc1ccccc1; 7.44
2) COc1ccc2nc3ccccc3c(NCCNCCO)c2c1; 1.68
3) [Br][Pb]([c]1ccccc1)([c]1ccccc1)[c]1ccccc1; 0.498
4) CC(C)(O)C1COC2=C1C(=O)c1ccccc1C2=O (configuration not stated); 44.9
5) OCCc1ccsc1-c1sc(-c2cc(CCO)c(-c3sc(-c4cc(CCO)c(-c5sccc5CCO)s4)cc3CCO)s2)cc1CCO; 3.61
6) Cc1sc(/N=C/C2=C(O)CC(C)(C)CC2=O)nc1-c1ccccc1; 5.93
7) [CH3][Sn]([CH3])([CH3])[S]C(=S)N1CCOCC1; 1.3
8) CCOC(=O)Cc1c(C(=O)OCC)[n+](=O)c2cc(Cl)c(Cl)cc2n1[O-]; 5.74

Provide TGI values for the following items, in order.
1. COC(=O)[C@@]12OC[C@]34[C@H]([C@@H](O)[C@@H]1O)[C@@]1(C)CC(=O)C(O)=C(C)[C@@H]1C[C@H]3OC(=O)[C@H](OC(=O)/C=C(\C)C(C)C)[C@@H]24
2. Brc1ccc2[nH]c3c(C4=NCCC4)nccc3c2c1

Result:
1: 0.00583; 2: 18.6
